target: SGLT2 (Homo sapiens, UniProt P31639); experiment: 14C-AMG uptake in BHK cells transfected with SGLT2; conditions: 37° C., 90 min
Sequence (P31639 whole entry): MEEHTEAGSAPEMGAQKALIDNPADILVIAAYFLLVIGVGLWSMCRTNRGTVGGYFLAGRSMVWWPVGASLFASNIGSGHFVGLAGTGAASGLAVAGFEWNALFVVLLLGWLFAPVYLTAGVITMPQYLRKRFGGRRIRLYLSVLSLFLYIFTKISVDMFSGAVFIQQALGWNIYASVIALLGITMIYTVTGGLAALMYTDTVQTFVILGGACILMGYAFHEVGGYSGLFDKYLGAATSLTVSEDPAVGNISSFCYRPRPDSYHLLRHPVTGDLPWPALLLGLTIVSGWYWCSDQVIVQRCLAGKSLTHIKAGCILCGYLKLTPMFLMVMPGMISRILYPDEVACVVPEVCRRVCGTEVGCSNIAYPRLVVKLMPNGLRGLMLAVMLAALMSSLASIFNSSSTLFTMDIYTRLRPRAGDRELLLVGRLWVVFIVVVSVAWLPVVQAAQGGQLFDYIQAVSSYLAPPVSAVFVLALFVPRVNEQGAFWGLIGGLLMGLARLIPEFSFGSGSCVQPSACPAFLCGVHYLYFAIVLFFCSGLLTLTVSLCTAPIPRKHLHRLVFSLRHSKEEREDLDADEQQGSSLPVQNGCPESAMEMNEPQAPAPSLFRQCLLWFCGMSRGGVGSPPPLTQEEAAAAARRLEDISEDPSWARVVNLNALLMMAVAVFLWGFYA
# key: entry, value: IC50

Consider the worked cases shown below.
{"Smiles String": "CCNc1nnc(-c2ccccc2-c2nc3ccc(F)cn3c2Nc2c(C)cccc2C)o1", "Study Target": "SGLT2 (Homo sapiens, UniProt P31639)", "Measured Parameter": "IC50", "Readout Value": "10 to 1000 nM"}
{"Smiles String": "Cc1cccc(C)c1Nc1c(-c2ccccc2-c2cccc(C(N)=O)c2)nc2ccccn12", "Study Target": "SGLT2 (Homo sapiens, UniProt P31639)", "Measured Parameter": "IC50", "Readout Value": "1000 to 10000 nM"}
{"Smiles String": "Cc1cccc(C)c1Nc1c(-c2ccccc2-c2cncnc2)nc2ccccn12", "Study Target": "SGLT2 (Homo sapiens, UniProt P31639)", "Measured Parameter": "IC50", "Readout Value": "10 to 1000 nM"}

Query block: Form field - read-out: IC50; system: SGLT2 (Homo sapiens, UniProt P31639); submitted item: Cc1cccc(C)c1Nc1c(-c2ccccc2-c2cccs2)nc2ccc(F)cn12
Result block: 1000 to 10000 nM

* * *

Biological target: UniProt P13866
Sequence (P13866 1-664): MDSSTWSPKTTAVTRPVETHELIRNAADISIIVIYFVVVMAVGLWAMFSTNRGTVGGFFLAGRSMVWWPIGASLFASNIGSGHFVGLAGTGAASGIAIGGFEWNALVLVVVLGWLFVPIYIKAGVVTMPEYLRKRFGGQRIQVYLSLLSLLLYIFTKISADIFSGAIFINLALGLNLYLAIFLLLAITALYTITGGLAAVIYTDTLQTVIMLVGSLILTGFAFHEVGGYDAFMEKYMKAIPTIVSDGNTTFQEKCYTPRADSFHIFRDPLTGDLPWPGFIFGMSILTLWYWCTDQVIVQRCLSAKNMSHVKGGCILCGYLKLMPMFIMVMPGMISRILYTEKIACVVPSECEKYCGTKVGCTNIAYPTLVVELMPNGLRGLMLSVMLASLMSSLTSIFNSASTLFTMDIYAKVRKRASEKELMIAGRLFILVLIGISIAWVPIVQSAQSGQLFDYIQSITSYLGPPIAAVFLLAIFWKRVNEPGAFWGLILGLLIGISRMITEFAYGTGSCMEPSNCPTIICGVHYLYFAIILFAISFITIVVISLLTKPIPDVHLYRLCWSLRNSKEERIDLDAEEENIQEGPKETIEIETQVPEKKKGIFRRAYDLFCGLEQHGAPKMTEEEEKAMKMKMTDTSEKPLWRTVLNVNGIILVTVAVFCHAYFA
Assay: 14C-AMG uptake in BHK cells transfected with SGLT1
Conditions: 37° C., 90 min
Text: The compounds can be tested on their SGLT inhibition properties by means of BHK cells expressing SGLT1 and SGLT2. The production of the cells and the testing can be carried out as described below. […] The final vector KL225 together with an additional vector containing a dihydrofolate reductase gene as a selection marker was introduced into cells. […] After growth for 2-3 weeks, the cells were cloned (0.5 cells/well) and the clones were investigated for SGLT expression in the radioactivity uptake test. […]
pIC50: −log10 of the molar value.
# key: entry, value: pIC50

{"Smiles String": "CNc1nnc(-c2sc3ccccc3c2-c2nc3ccc(F)cn3c2Nc2c(C)cccc2C)o1", "Study Target": "UniProt P13866", "pIC50": "6.00 to 8.00"}

Query block: Which pIC50 value is on record for Cc1cccc(C)c1Nc1c(-c2ccccc2-c2ccc([N+](=O)[O-])s2)nc2ccc(F)cn12 ?
Result block: 5.00 to 6.00

Query block: Also, Cc1cccc(C)c1Nc1c(-c2ccccc2-c2cncnc2)nc2ccccn12 please.
Result block: 5.00 to 6.00

Query block: Also, CNc1nnc(-c2ccccc2-c2nc3ccc(F)cn3c2Nc2c(C)cccc2C)o1 please.
Result block: 5.00 to 6.00

Query block: Also, Cc1cccc(C)c1Nc1c(-c2c(-n3cccn3)cccc2-n2cccn2)nc2ccc(F)cn12 please.
Result block: 5.00 to 6.00
